The reader will find reported GI50 values listed item by item below.
- Test system: SF-295
- assay.overview: NCI tumour cell line growth inhibition, 48 h
Calls of active or inactive are those of the source. Cut-off read from the data, not from the text of the source: active = GI50 up to about 1.1 µM and inactive = higher.

compound	GI50
CC1(C)O[C@H]2OC(CO[Si](C)(C)C(C)(C)C)C(N=[N+]=[N-])[C@H]2O1 (stereo not given in full)	11.8 µM (inactive)
O=C(Nc1nn(C(=O)c2ccc(Cl)cc2)c(=O)s1)c1ccc(Cl)cc1	> 100 µM (inactive)
O=C1OC(c2ccc(O)c(-c3ccccc3)c2)(c2ccc(O)c(-c3ccccc3)c2)c2c(Cl)c(Cl)c(Cl)c(Cl)c21	> 100 µM (inactive)
O=C(/N=N/c1cc(Cl)ccc1Cl)NNc1cc(Cl)ccc1Cl	22.8 µM (inactive)
Cc1cc(N(CCC#N)CCC#N)ccc1C(/N=N/c1ccc([N+](=O)[O-])cc1)=N\NC(=O)c1ccccc1	19.5 µM (inactive)
C1=N\c2ccc(cc2)-c2ccc(cc2)/N=C\c2ccc(cc2)OCc2cccc(n2)COc2ccc/1cc2	79.4 µM (inactive)
CCC1(c2c(F)c(F)c(N)c(F)c2F)CCC(=O)NC1=O (stereo not given)	> 100 µM (inactive)
O=C(/C=C/c1ccccc1)CCc1c(O)c2ccccc2oc1=O	> 100 µM (inactive)
CCOP1(=O)CC(C)=C(Cl)C(OC)C1 (stereo not given)	> 100 µM (inactive)
O=NN1CCNC1Cc1ccccc1 (stereo not given)	49 µM (inactive)

Entry source: ChEMBL document CHEMBL1201862
